Before we begin, note that these pIC50 values for Caspase-3 (Homo sapiens, UniProt P42574) originate from several publications.
# targetSystem: Caspase-3 (Homo sapiens, UniProt P42574)
# Sequence (P42574 whole entry): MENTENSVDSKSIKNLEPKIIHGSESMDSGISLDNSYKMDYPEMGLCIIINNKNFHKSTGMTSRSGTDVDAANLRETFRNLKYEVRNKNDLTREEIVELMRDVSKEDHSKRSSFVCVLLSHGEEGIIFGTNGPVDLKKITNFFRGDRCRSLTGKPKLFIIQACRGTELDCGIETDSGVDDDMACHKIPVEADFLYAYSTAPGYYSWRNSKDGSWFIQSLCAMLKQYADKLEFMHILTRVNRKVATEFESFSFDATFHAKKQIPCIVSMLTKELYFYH
pIC50: −log10 of the molar value.

Could you share which pIC50 value was measured for CCOC(=O)c1ccc(N/C=C(\C#N)c2nc(-c3cc4cc([N+](=O)[O-])ccc4oc3=O)cs2)cc1 ?
< 4.00

Could you share which pIC50 value was measured for CCn1c(=O)c2c(nc(S)n2C)n(C)c1=O ?
< 3.70

Could you share which pIC50 value was measured for COc1cccc(C(=O)NNC(=O)C2(C(=O)N[C@H]3CC(=O)OC3O)CCCCC2)c1 (stereo partly drawn) ?
< 5.00

Could you share which pIC50 value was measured for O=C(CN1CCCN(C(=O)c2cccc(F)c2)C[C@H](NC(=O)c2ccc3ccccc3c2)C1=O)N[C@H]1CC(=O)OC1O (stereo partly drawn) ?
< 5.00

Could you share which pIC50 value was measured for CO[C@@H](C)c1c(NC(=O)Nc2cnc(-n3nccn3)c(Cl)c2)cnc2cc(Cl)nn12 ?
< 4.00

Could you share which pIC50 value was measured for CS(=O)(=O)N1C[C@@H]2CCCC[C@H](NC(=O)c3ccc4ccccc4c3)C(=O)N2[C@H](C(=O)N[C@H]2CC(=O)OC2O)C1 (stereo partly drawn) ?
< 5.00

Could you share which pIC50 value was measured for Cc1nc(C2COc3ccccc3O2)sc1C(=O)O (stereo not drawn) ?
3.89

Could you share which pIC50 value was measured for O=C(CN1CC(CNC(=O)c2ccccc2)=CC[C@H](NC(=O)c2ccc3ccccc3c2)C1=O)N[C@H]1CC(=O)OC1O (stereo partly drawn) ?
5.77

Could you share which pIC50 value was measured for Cn1c(=O)c2c(nc(S)n2C)n(C)c1=O ?
3.73

Could you share which pIC50 value was measured for CC(=O)Oc1ccc(CN2C(=O)C(=O)c3cc(S(=O)(=O)N4CCC[C@H]4COc4ccccc4)ccc32)cc1 ?
7.92

Could you share which pIC50 value was measured for O=C1C(=O)N(Cc2cn(CCF)nn2)c2ccc(S(=O)(=O)N3CC[C@H]3COc3ccccc3)cc21 ?
7.96

Could you share which pIC50 value was measured for O=C1C[C@H](NC(=O)C2(C(=O)NNC(=O)c3cccc4ccccc34)CCCC2)C(O)O1 (stereo partly drawn) ?
< 5.00

Could you share which pIC50 value was measured for O=C(CN1CC=CC[C@H](NC(=O)c2nccc3ccccc23)C1=O)N[C@H]1CC(=O)OC1O (stereo partly drawn) ?
< 5.00
